Listed below: IC50 values for each entry.
System: MCF7
Experiment: Antiproliferative activity against human MCF7 cells assessed as incorporation of [methyl-3H]thymidine into cellular DNA in serum free medium in absence of 6.2 ug/mL RNase 1
Format: functional, cell-based
Express it in µM; write the number only.

substance_smiles: CCC(=C(c1ccc(O)cc1)c1ccc(OCCN(C)C)cc1)c1ccccc1
target_under_test: MCF7
display_unit: µM
IC50: 2.7

Next:
Q. Query (compound): `CC/C(=C(/c1ccc(OCCN(C)C)cc1)c1ccc(OP(=O)(O)O[C@H]2[C@@H](O)[C@H](n3ccc(=O)[nH]c3=O)O[C@@H]2CO)cc1)c1ccccc1` ; field requested: IC50
A. 16.7

Recorded values, source ChEMBL document CHEMBL2203247.
